The following molecules are listed with their measured clearance values.
- protocol_summary: Clearance in rat at […]
- Type: ADME, organism-based
- Set-up: dose 2.5 mg/kg
- condition_info: in vivo
Supply the numeric figure in L/h/kg, leaving out any unit text.

{"columns": ["structure_notation", "clearance (L/h/kg)"],
 "data": [
  ["O=c1[nH]c(CN2CCC2)nc2c1oc1ccc(Br)cc12", 1.84]
]}

Lookup: What does the record list as clearance for `O=c1[nH]c(CN2CC(O)C2)nc2c1oc1ccc(Br)cc12` ?
Found: 0.81

###

- protocol_summary: Plasma concentration in mouse at 100 mg/kg, po after 4 hrs
- Format: ADME, organism-based
- Design: dose 100 mg/kg, route oral
Listed next: entries and their corresponding concentration at 4 h.
Your answer is read as µM, so omit the unit and give the number.

Examples with their reported concentration at 4 h follow.
{"columns": ["structure_notation", "concentration at 4 h (µM)"],
 "data": [
  ["O=c1[nH]c(CN2CCC2)nc2c1oc1ccc(Br)cc12", 5],
  ["O=c1[nH]c(CN2CC[C@@H](O)C2)nc2c1oc1ccc(Br)cc12", 35],
  ["O=c1[nH]c(CN2CC(O)C2)nc2c1oc1ccc(Br)cc12", 22],
  ["N[C@@H]1CCN(Cc2nc3c(oc4ccc(Br)cc43)c(=O)[nH]2)C1", 5]
]}

Lookup: Please report the recorded concentration at 4 h for `CN1C[C@@H]2C[C@H]1CN2Cc1nc2c(oc3ccc(Br)cc32)c(=O)[nH]1` .
Found: 7

###

- protocol_summary: Half life in rat at 5 mg/kg, iv
- Format: ADME, organism-based
- Parameters: dose 5 mg/kg, route intravenous
- condition_info: in vivo
parameter_measured: half-life (h)
Dear colleague, please return just the value in h, with no unit written.

Solved cases below.
{"columns": ["structure_notation", "unit_string", "recorded_value"],
 "data": [
  ["O=c1[nH]c(CN2CC[C@@H](O)C2)nc2c1oc1ccc(Br)cc12", "h", 2.7],
  ["N[C@@H]1CCN(Cc2nc3c(oc4ccc(Br)cc43)c(=O)[nH]2)C1", "h", 1.4]
]}

As a next step, examine the compound that follows.
Lookup: What half-life value was documented for this compound, `CN1C[C@@H]2C[C@H]1CN2Cc1nc2c(oc3ccc(Br)cc32)c(=O)[nH]1` ?
Found: 2.6

###

- protocol_summary: Cmax in rat at […], iv
- Format: ADME, organism-based
- Design: dose 2.5 mg/kg, route intravenous
- condition_info: in vivo
parameter_measured: Cmax (nM)
Provide the reading as a plain figure in nM.

{"columns": ["structure_notation", "unit_string", "Cmax"],
 "data": [
  ["O=c1[nH]c(CN2CC(O)C2)nc2c1oc1ccc(Br)cc12", "nM", 3500]
]}

Would you kindly look at the next entry?
Lookup: Which Cmax value is on record for `O=c1[nH]c(CN2CCC2)nc2c1oc1ccc(Br)cc12` ?
Found: 1800

###

Consider the following compounds and their measured half-life readings.
- protocol_summary: Half life in rat at […], iv
- Type: ADME, organism-based
- Design: dose 2.5 mg/kg, route intravenous
- condition_info: in vivo
Give the quantity in h, number only.

{"columns": ["structure_notation", "half-life (h)"],
 "data": [
  ["O=c1[nH]c(CN2CC(O)C2)nc2c1oc1ccc(Br)cc12", 8.4]
]}

# input for lookup
Lookup: Consider the compound `O=c1[nH]c(CN2CCC2)nc2c1oc1ccc(Br)cc12` and give its measured half-life.
Found: 1
